// % inhibition HDAC @ 100 μM lookup, one value per entry
system: Histone deacetylase (HDAC), HeLa cell nuclear extract; experiment: In vitro fluorescent histone deacetylase assay (Biomol kit, HeLa cell nuclear extract); format: biochemical; details: compound at 100 μM; HeLa cell nuclear extract as HDAC source; substrate 50 μM; 10 min at room temperature
MEASUREMENT_LABEL: % inhibition HDAC @ 100 μM (%)

CN(C)c1ccc(S(=O)(=O)N2CCN(c3ncc(C(=O)NO)s3)CC2)cc1 [Example 29]; 100
O=C(NO)c1cnc(N2CCN(S(=O)(=O)c3ccc(-c4ccco4)cc3)CC2)s1 [Example 59]; 99
Cc1c(Cl)cccc1S(=O)(=O)N1CCN(c2ncc(C(=O)NO)s2)CC1 [Example 32]; 99
O=C(NO)c1cnc(N2CCN(S(=O)(=O)c3ccc(-c4cncnc4)cc3)CC2)s1 [Example 91]; 99

----------
// % inhibition HDAC @ 100 μM lookup, one value per entry
tested on: Histone deacetylase (HDAC), HeLa cell nuclear extract; test: In vitro fluorescent histone deacetylase assay (Biomol kit, HeLa cell nuclear extract); type: biochemical; conditions: compound at 100 μM; HeLa cell nuclear extract as HDAC source; substrate 50 μM; 10 min at room temperature
MEASUREMENT_LABEL: % inhibition HDAC @ 100 μM (%)

CN(C)Cc1ccc(S(=O)(=O)N2CCN(c3ncc(C(=O)NO)s3)CC2)cc1; 98
O=C(NO)c1cnc(N2CCN(S(=O)(=O)c3ccc(-c4ccc(F)cc4)cc3)CC2)s1; 98
CN(C)Cc1sccc1-c1ccc(S(=O)(=O)N2CCN(c3ncc(C(=O)NO)s3)CC2)cc1; 100
CN(C)Cc1ccc(-c2ccc(S(=O)(=O)N3CCN(c4ncc(C(=O)NO)s4)CC3)cc2)cc1; 99
COc1ccc(S(=O)(=O)N2CCN(c3ncc(C(=O)NO)s3)CC2)cc1OC; 99
CN(C)c1cccc2c(S(=O)(=O)N3CCN(c4ncc(C(=O)NO)s4)CC3)cccc12; 88

----------
test system: Histone deacetylase (HDAC), HeLa cell nuclear extract; experiment: In vitro fluorescent histone deacetylase assay (Biomol kit, HeLa cell nuclear extract); assay type: biochemical; settings: compound at 100 μM; HeLa cell nuclear extract as HDAC source; substrate 50 μM; 10 min at room temperature
// % inhibition HDAC @ 100 μM lookup, one value per entry
MEASUREMENT_LABEL: % inhibition HDAC @ 100 μM (%)

Cc1ccc(S(=O)(=O)N2CCN(c3ncc(C(=O)NO)s3)CC2)cc1F [Example 40]; 100
Cc1ccc(S(=O)(=O)N2CCN(c3ncc(C(=O)NO)s3)CC2)cc1C [Example 50]; 99
CS(=O)(=O)c1ccc(S(=O)(=O)N2CCN(c3ncc(C(=O)NO)s3)CC2)cc1 [Example 19]; 99
O=C(NO)c1cnc(N2CCN(S(=O)(=O)c3ccc(-c4cccs4)cc3)CC2)s1 [Example 65]; 99
CC(C)(C)OC(=O)n1cccc1-c1ccc(S(=O)(=O)N2CCN(c3ncc(C(=O)NO)s3)CC2)cc1 [Example 66]; 99
CCN(C)Cc1cccc(-c2ccc(S(=O)(=O)N3CCN(c4ncc(C(=O)NO)s4)CC3)cc2)c1 [Example 86]; 99
COc1ccc(S(=O)(=O)N2CCN(c3ncc(C(=O)NO)s3)CC2)cc1 [Example 103]; 100
Cn1cnc(S(=O)(=O)N2CCN(c3ncc(C(=O)NO)s3)CC2)c1 [Example 102]; 99
O=C(NO)c1cnc(N2CCN(S(=O)(=O)c3ccc(-c4ccc(CN5CCCC5)s4)cc3)CC2)s1 [Example 88]; 99
O=C(NO)c1cnc(N2CCN(S(=O)(=O)c3ccc(-c4cccc(Cl)c4)cc3)CC2)s1 [Example 57]; 93
CN(C)Cc1cccc(S(=O)(=O)N2CCN(c3ncc(C(=O)NO)s3)CC2)c1 [Example 97]; 99
O=C(NO)c1cnc(N2CCN(S(=O)(=O)c3ccc(-c4cccnc4)cc3)CC2)s1 [Example 93]; 100
CN(C)Cc1cccc(-c2ccc(S(=O)(=O)N3CCN(c4ncc(C(=O)NO)s4)CC3)cc2)c1.Cl [Example 74]; 100
O=C(NO)c1cnc(N2CCN(S(=O)(=O)c3cccc(CN4CCCC4)c3)CC2)s1 [Example 98]; 98
O=C(NO)c1cnc(N2CCN(S(=O)(=O)/C=C/c3ccccc3)CC2)s1 [Example 20]; 97
C=CCN(C)Cc1cccc(-c2ccc(S(=O)(=O)N3CCN(c4ncc(C(=O)NO)s4)CC3)cc2)c1.Cl [Example 79]; 99
CC(C)N(C)Cc1cccc(-c2ccc(S(=O)(=O)N3CCN(c4ncc(C(=O)NO)s4)CC3)cc2)c1 [Example 87]; 99

----------
// % inhibition HDAC @ 100 μM lookup, one value per entry
tested on: Histone deacetylase (HDAC), HeLa cell nuclear extract; assay: In vitro fluorescent histone deacetylase assay (Biomol kit, HeLa cell nuclear extract); format: biochemical; conditions: compound at 100 μM; HeLa cell nuclear extract as HDAC source; substrate 50 μM; 10 min at room temperature
MEASUREMENT_LABEL: % inhibition HDAC @ 100 μM (%)

O=C(NO)c1cnc(N2CCN(S(=O)(=O)c3cccc(Cl)c3)CC2)s1; 95
O=C(NO)c1cnc(N2CCN(S(=O)(=O)c3ccc(-c4sccc4CN4CCCC4)cc3)CC2)s1; 99
CN1CCOc2cc(S(=O)(=O)N3CCN(c4ncc(C(=O)NO)s4)CC3)ccc21; 96
Cl.O=C(NO)c1cnc(N2CCN(S(=O)(=O)c3ccc(-c4cccc(CN5CCCCCC5)c4)cc3)CC2)s1; 100
CC(C)(C)c1ccc(-c2ccc(S(=O)(=O)N3CCN(c4ncc(C(=O)NO)s4)CC3)cc2)cc1; 48
O=C(NO)c1cnc(N2CCN(S(=O)(=O)c3ccc(CN4CCCC4)cc3)CC2)s1; 99
CCCCS(=O)(=O)N1CCN(c2ncc(C(=O)NO)s2)CC1; 94
O=C(NO)c1cnc(N2CCN(S(=O)(=O)c3ccc(N4CCCC4)cc3)CC2)s1; 99
O=C(NO)c1cnc(N2CCN(S(=O)(=O)c3cccs3)CC2)s1; 98
O=C(NO)c1cnc(N2CCN(S(=O)(=O)c3ccc(-c4ccc(Cl)cc4)cc3)CC2)s1; 98
O=C(NO)c1cnc(N2CCN(S(=O)(=O)c3cccc(F)c3)CC2)s1; 97
O=C(NO)c1cnc(N2CCN(S(=O)(=O)c3ccc(OC(F)(F)F)cc3)CC2)s1; 93
Cc1noc(C)c1S(=O)(=O)N1CCN(c2ncc(C(=O)NO)s2)CC1; 99
COc1ccc(-c2ccc(S(=O)(=O)N3CCN(c4ncc(C(=O)NO)s4)CC3)cc2)cc1; 98
O=C(NO)c1cnc(N2CCN(S(=O)(=O)c3cccc(-c4ccccc4)c3)CC2)s1; 100
O=C(NO)c1cnc(N2CCN(S(=O)(=O)c3ccc(Br)s3)CC2)s1; 9
Cc1ccc(S(=O)(=O)N2CCN(c3ncc(C(=O)NO)s3)CC2)cc1; 100
Cc1cccc(S(=O)(=O)N2CCN(c3ncc(C(=O)NO)s3)CC2)c1; 100
O=C(NO)c1cnc(N2CCN(S(=O)(=O)c3ccc(-c4ccccc4)cc3)CC2)s1; 97
CCN(CC)Cc1cccc(-c2ccc(S(=O)(=O)N3CCN(c4ncc(C(=O)NO)s4)CC3)cc2)c1.Cl; 100
CC(=O)Nc1ccc(-c2ccc(S(=O)(=O)N3CCN(c4ncc(C(=O)NO)s4)CC3)cc2)cc1; 100
Cc1ccc(S(=O)(=O)N2CCN(c3ncc(C(=O)NO)s3)CC2)cc1Cl; 99
O=C(NO)c1cnc(N2CCN(S(=O)(=O)c3ccc(-c4cccc(CN5CCCCC5)c4)cc3)CC2)s1; 100
CN1CCN(Cc2cccc(-c3ccc(S(=O)(=O)N4CCN(c5ncc(C(=O)NO)s5)CC4)cc3)c2)CC1; 100
O=C(NO)c1cnc(N2CCN(S(=O)(=O)c3ccc(-c4ccccc4Cl)cc3)CC2)s1; 95
O=C(NO)c1cnc(N2CCN(S(=O)(=O)c3ccc(-c4ccc5c(c4)OCO5)cc3)CC2)s1; 99
O=C(NO)c1cnc(N2CCN(S(=O)(=O)CCc3ccccc3)CC2)s1; 98
CC1CCN(Cc2cccc(-c3ccc(S(=O)(=O)N4CCN(c5ncc(C(=O)NO)s5)CC4)cc3)c2)CC1.Cl; 99
O=C(NO)c1cnc(N2CCN(S(=O)(=O)c3ccccc3C(F)(F)F)CC2)s1; 99
O=C(NO)c1cnc(N2CCN(S(=O)(=O)c3cc4ccccc4s3)CC2)s1; 99
CC(C)(C)c1ccc(S(=O)(=O)N2CCN(c3ncc(C(=O)NO)s3)CC2)cc1; 98
CN(C)S(=O)(=O)N1CCN(c2ncc(C(=O)NO)s2)CC1; 98
COCc1cccc(S(=O)(=O)N2CCN(c3ncc(C(=O)NO)s3)CC2)c1; 99

----------
tested on: Histone deacetylase (HDAC), HeLa cell nuclear extract; assay: In vitro fluorescent histone deacetylase assay (Biomol kit, HeLa cell nuclear extract); format: biochemical; conditions: compound at 100 μM; HeLa cell nuclear extract as HDAC source; substrate 50 μM; 10 min at room temperature
MEASUREMENT_LABEL: % inhibition HDAC @ 100 μM (%)

CN(C)C(=O)c1ccc(-c2ccc(S(=O)(=O)N3CCN(c4ncc(C(=O)NO)s4)CC3)cc2)cc1 [Example 68]; 99
CCCc1ccc(S(=O)(=O)N2CCN(c3ncc(C(=O)NO)s3)CC2)cc1 [Example 23]; 99
O=C(NO)c1cnc(N2CCN(S(=O)(=O)c3ccc([N+](=O)[O-])cc3)CC2)s1 [Example 6]; 97
O=C(NO)c1cnc(N2CCN(S(=O)(=O)c3ccccc3F)CC2)s1 [Example 34]; 92
Cc1cc(F)ccc1S(=O)(=O)N1CCN(c2ncc(C(=O)NO)s2)CC1 [Example 41]; 98
O=C(NO)c1cnc(N2CCN(S(=O)(=O)c3ccc(-c4ccsc4CN4CCCC4)cc3)CC2)s1 [Example 82]; 99
O=C(NO)c1cnc(N2CCN(S(=O)(=O)c3ccc(F)cc3)CC2)s1 [Example 11]; 98
O=C(NO)c1cnc(N2CCN(S(=O)(=O)c3cccnc3)CC2)s1 [Example 49]; 85
